// data source = paper PMC8305768

# Test system: L. donovani strain BPK190 amastigotes
# ASSAY: Activity against L. donovani intramacrophage amastigotes (bone marrow-derived macrophages, qPCR)
# Assay type: cell-based, Leishmania donovani
# CONDITION_DETAILS: Leishmania donovani, Macrophage, infected bone marrow-derived macrophages, 48 h, read-out: Parassite Load Reduction (%)
# Method: L. donovani strain BPK 190 [55] was cultivated at 25 °C in modified Medium199 (Sigma-Aldrich, with 20% heat-inactivated FCS, 40 mM HEPES pH 7.4, 0.2% NaHCO3, 100 μM adenin, 1.2 μg/mL 6-biopterin and 10 μg/mL haem, with 1 × Pen/Strep/l-glutamine (Sigma, Saint Louis, MI, USA), pH 7.0). Activity against L. donovani strain BPK190 was tested in vitro using bone marrow-derived macrophages as host cells. Infection was established for 24 h prior to the addition of compounds from 10 mM stocks in DMSO. […]
EXPERIMENTAL_ENDPOINT: inhibition of growth at 5 µM (%)
Express your answer in %, writing the number without its unit.

Input line: Field request: inhibition of growth at 5 µM | item: CCCCCCCCCCCCCCCCOP(=O)([O-])OCC[N+](C)(C)C [Miltefosine, hexadecylphosphocholine, reference compound]
Output line: 44.3

Input line: Do the same for "C[N+](C)(C)CCOP(=O)([O-])OCCCCCCCCCCCn1cc(CCCCCCCCC(=O)OCc2ccccc2)nn1" please
Output line: 0

Input line: Do the same for "C[N+](C)(C)CCOP(=O)([O-])OCCCCCCCCCCCn1cc(CCCCCCCCNC(=O)OCc2ccccc2)nn1" please
Output line: 0.7

Input line: Do the same for "C[N+](C)(C)CCOP(=O)([O-])OCCCCCCCCCCCn1cc(CC2CCCCC2)nn1" please
Output line: 41.7

Input line: Do the same for "C[N+](C)(C)CCOP(=O)([O-])OCCCCCCCCCCCn1cc(CCCCCCCCN)nn1" please
Output line: 20.3

Input line: Do the same for "C[N+](C)(C)CCOP(=O)([O-])OCCCCCCCCCCCn1cc(CC2CCCC2)nn1" please
Output line: 0

Input line: Do the same for "CCCCCc1cn(CCCCCCCCCCCOP(=O)([O-])OCC[N+](C)(C)C)nn1" please
Output line: 0

----------
# Test system: WI-38 cells
# ASSAY: Cytotoxicity assay WI-38 (CellTiter-Glo)
# Assay type: cell-based
# CONDITION_DETAILS: compounds 10 μM; miltefosine 10 μM or 1 μM
EXPERIMENTAL_ENDPOINT: % cell growth ± SD at 10 μΜ W1-38 (%)
Express your answer in %, writing the number without its unit.

{"COMPOUND": "C[N+](C)(C)CCCOP(=O)([O-])OCCCCCCCCCCCn1cc(CC2CCCCC2)nn1 [Compound 33]", "VALUE_OBSERVED": 136.32}
{"COMPOUND": "C[N+](C)(C)CCOP(=O)([O-])OCCCCCn1cc(CCCCCCCCNC(=O)OCc2ccccc2)nn1 [Compound 31]", "VALUE_OBSERVED": 123.63}
{"COMPOUND": "C[N+](C)(C)CCOP(=O)([O-])OCCCCCCCCCCCn1cc(CC2CCCC2)nn1 [Compound 28]", "VALUE_OBSERVED": 114.04}
{"COMPOUND": "CCCCCCCCCCCCCCCCOP(=O)([O-])OCC[N+](C)(C)C [Miltefosine, hexadecylphosphocholine, reference compound]", "VALUE_OBSERVED": 113.50}
{"COMPOUND": "C[N+](C)(C)CCOP(=O)([O-])OCCCCCn1cc(CCCCCCCCN)nn1 [Compound 35]", "VALUE_OBSERVED": 119.10}
{"COMPOUND": "C[N+](C)(C)CCOP(=O)([O-])OCCCCCCCCCCCn1cc(CC2CCCCC2)nn1 [Compound 29]", "VALUE_OBSERVED": 92.93}

Input line: Field request: % cell growth ± SD at 10 μΜ W1-38 | item: CCCCCc1cn(CCCCCCCCCCCOP(=O)([O-])OCC[N+](C)(C)C)nn1 [Compound 25]
Output line: 93.46

Input line: Do the same for CCCCCCCc1nnc(CCCCCCCCCCOP(=O)([O-])OCC[N+](C)(C)C)o1 [Compound 65] please
Output line: 77.74

Input line: Do the same for CCCCCCCCc1noc(CCCCCOP(=O)([O-])OCC[N+](C)(C)C)n1 [Compound 53] please
Output line: 83.83

----------
# CC50 at 72 h values compiled below
# ASSAY: Cytotoxicity against THP-1 macrophages (MTT)
# Format: cell-based
# CONDITION_DETAILS: human, PMA-differentiated THP-1 macrophages, read-out: Toxicity CC50 ± SD Or CC50 Interval Estimation

{"QUERY_SMILES": "CCCCCCCCc1noc(CCCCCOP(=O)([O-])OCC[N+](C)(C)C)n1", "CC50 at 72 h": "12.5 to 25 µM"}
{"QUERY_SMILES": "CCCCCCCCc1noc(CCCCCCCCCCOP(=O)([O-])OCC[N+](C)(C)C)n1", "CC50 at 72 h": "> 10 µM"}
{"QUERY_SMILES": "C[N+](C)(C)CCOP(=O)([O-])OCCCCCCCCCCCn1cc(CC2CCCC2)nn1", "CC50 at 72 h": "> 100 µM"}

# input for lookup
Input line: Field request: CC50 at 72 h | item: "CCCCCCCc1nnc(CCCCCCCCCCOP(=O)([O-])OCC[N+](C)(C)C)o1"
Output line: 12.5 to 25 µM

----------
# TESTED_ON: hERG (Homo sapiens, UniProt Q12809)
# Construct: purchased Thermo Fischer Scientific
# Sequence (Q12809 whole entry): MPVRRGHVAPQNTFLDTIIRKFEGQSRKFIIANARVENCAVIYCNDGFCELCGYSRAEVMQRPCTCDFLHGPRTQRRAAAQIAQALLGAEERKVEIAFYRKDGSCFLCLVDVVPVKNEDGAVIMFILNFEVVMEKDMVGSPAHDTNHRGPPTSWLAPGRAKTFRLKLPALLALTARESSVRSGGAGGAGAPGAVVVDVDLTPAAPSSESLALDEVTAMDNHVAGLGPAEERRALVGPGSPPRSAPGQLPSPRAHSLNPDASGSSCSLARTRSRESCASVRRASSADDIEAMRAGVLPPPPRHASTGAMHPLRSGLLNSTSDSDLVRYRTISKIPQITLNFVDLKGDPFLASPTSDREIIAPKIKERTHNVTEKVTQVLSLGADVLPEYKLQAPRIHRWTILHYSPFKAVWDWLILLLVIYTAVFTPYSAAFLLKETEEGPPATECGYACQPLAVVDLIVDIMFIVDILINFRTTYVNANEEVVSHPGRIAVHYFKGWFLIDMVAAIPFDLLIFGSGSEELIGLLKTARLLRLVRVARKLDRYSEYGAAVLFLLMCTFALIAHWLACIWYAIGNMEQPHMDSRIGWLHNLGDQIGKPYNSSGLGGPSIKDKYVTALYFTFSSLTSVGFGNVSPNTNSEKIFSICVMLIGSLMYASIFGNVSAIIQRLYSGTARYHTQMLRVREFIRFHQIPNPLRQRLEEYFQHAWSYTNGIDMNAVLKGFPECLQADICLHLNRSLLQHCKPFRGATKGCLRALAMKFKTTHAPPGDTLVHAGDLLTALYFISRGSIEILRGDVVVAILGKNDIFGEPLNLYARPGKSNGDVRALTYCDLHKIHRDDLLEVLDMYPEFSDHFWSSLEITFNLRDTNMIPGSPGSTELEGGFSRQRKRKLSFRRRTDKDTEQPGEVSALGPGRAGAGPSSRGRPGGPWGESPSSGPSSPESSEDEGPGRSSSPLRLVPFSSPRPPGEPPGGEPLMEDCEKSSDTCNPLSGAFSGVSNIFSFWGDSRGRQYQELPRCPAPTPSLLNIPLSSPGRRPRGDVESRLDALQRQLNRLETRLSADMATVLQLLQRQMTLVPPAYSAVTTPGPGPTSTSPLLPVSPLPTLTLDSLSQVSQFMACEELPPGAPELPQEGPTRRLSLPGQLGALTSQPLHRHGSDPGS
# ASSAY: hERG cardiotoxicity assay (Predictor hERG fluorescence polarization)
# Format: binding
# CONDITION_DETAILS: compounds 10 μM; miltefosine 10 μM or 1 μM
EXPERIMENTAL_ENDPOINT: % inhibition ± SD at 10 μΜ hERG

Input line: Field request: % inhibition ± SD at 10 μΜ hERG | item: "C[N+](C)(C)CCOP(=O)([O-])OCCCCCn1cc(CCCCCCCCN)nn1"
Output line: 0.10%

----------
# TESTED_ON: Aurora B kinase (Homo sapiens, UniProt Q96GD4)
# Construct: purchased Promega Corp
# Sequence (Q96GD4 whole entry): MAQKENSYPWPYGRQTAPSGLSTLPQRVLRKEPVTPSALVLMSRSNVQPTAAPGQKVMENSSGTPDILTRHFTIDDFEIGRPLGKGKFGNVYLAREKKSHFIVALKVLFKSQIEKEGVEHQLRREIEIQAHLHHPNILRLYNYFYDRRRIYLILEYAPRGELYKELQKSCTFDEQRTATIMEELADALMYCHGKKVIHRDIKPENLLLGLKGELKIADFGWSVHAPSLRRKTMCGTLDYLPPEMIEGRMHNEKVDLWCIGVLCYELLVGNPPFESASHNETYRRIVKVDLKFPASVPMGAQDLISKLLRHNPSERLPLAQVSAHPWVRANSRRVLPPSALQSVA
# ASSAY: Aurora B kinase assay (ADP-Glo)
# Type: biochemical
# CONDITION_DETAILS: compounds 10 μM; miltefosine 10 μM or 1 μM; read-out: % inhibition ± SD at 10 μΜ Aurora B
# inhibition at 10 µM values compiled below
Express your answer in %, writing the number without its unit.

Example results:
{"COMPOUND": "C[N+](C)(C)CCOP(=O)([O-])OCCCCCCCCCCCn1cc(CC2CCCC2)nn1", "TESTED_ON": "Aurora B kinase (Homo sapiens, UniProt Q96GD4)", "SCALE_UNIT": "%", "VALUE_OBSERVED": -11.7}
{"COMPOUND": "C[N+](C)(C)CCOP(=O)([O-])OCCCCCCCCCCCn1cc(CC2CCCCC2)nn1", "TESTED_ON": "Aurora B kinase (Homo sapiens, UniProt Q96GD4)", "SCALE_UNIT": "%", "VALUE_OBSERVED": -6.17}

Input line: Field request: inhibition at 10 µM | item: CCCCCCCCCCCCCCCCOP(=O)([O-])OCC[N+](C)(C)C [Miltefosine, hexadecylphosphocholine, reference compound]
Output line: -12.5

Input line: Do the same for "CCCCCc1cn(CCCCCCCCCCCOP(=O)([O-])OCC[N+](C)(C)C)nn1" please
Output line: -10.3

----------
# TESTED_ON: CYP1A2 (Homo sapiens, UniProt P05177)
# Construct: purchased Corning Inc; host or cells: baculovirus-infected insect cells
# Sequence (P05177 2-516 limits assumed): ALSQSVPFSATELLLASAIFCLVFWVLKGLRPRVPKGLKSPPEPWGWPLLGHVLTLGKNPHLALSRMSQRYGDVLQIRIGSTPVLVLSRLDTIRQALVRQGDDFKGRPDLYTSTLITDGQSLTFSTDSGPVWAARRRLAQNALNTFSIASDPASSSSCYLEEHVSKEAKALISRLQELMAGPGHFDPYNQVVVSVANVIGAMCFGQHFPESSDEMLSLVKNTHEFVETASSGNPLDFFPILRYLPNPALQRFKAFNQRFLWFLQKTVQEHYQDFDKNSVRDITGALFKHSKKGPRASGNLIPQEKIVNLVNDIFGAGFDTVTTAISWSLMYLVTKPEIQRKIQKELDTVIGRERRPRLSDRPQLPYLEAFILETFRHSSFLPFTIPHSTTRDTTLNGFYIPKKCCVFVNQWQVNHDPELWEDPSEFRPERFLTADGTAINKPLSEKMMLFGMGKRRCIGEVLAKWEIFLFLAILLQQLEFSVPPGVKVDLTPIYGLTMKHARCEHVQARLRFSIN
# ASSAY: Cytochrome P450 inhibition assay (P450-Glo) CYP1A2
# Type: in vitro ADME
# CONDITION_DETAILS: compounds 10 μM; miltefosine 10 μM or 1 μM
# % inhibition ± SD at 10 μΜ CYP1A2 values compiled below
Express your answer in %, writing the number without its unit.

{"QUERY_SMILES": "C[N+](C)(C)CCCOP(=O)([O-])OCCCCCCCCCCCn1cc(CC2CCCCC2)nn1", "SCALE_UNIT": "%", "VALUE_OBSERVED": 15.23}
{"QUERY_SMILES": "C[N+](C)(C)CCOP(=O)([O-])OCCCCCn1cc(CCCCCCCCNC(=O)OCc2ccccc2)nn1", "SCALE_UNIT": "%", "VALUE_OBSERVED": 13.80}
{"QUERY_SMILES": "C[N+](C)(C)CCOP(=O)([O-])OCCCCCCCCCCCn1cc(CCCCCCCCNC(=O)OCc2ccccc2)nn1", "SCALE_UNIT": "%", "VALUE_OBSERVED": 12.02}

Input line: Field request: % inhibition ± SD at 10 μΜ CYP1A2 | item: "CCCCCCCCc1noc(CCCCCOP(=O)([O-])OCC[N+](C)(C)C)n1"
Output line: 20.03
